Where do the numbers come from? From patent US20130224187A1.

Molecular target: T1, human C5a desarg (human, UniProt P01031 678-750)
T1 construct: also called desarginated C5a; hC5a desarg
T1 sequence: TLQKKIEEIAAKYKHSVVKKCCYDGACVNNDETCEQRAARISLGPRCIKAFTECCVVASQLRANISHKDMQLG
Experiment: Biolayer interferometry (Octet); biotinylated antigen on streptavidin tip, 20 nM IgG in solution
endpoint_name: binding result

| binder | endpoint_name | result |
| --- | --- | --- |
| 5an179ME (antibody, V domains shown, Full length mouse IgG2a) VH: EVQLQQSGPELVKPGASVRMSCKASGYTFTSYLIHWVKQKPGQGLEWIGYIYPFNDGTKNNENFKGKATLTSDKSSSTVYMEVSSLTSEDSAVYYCARSHGPHYYGGSYGYHFDYWGQGTTLTVSS VL: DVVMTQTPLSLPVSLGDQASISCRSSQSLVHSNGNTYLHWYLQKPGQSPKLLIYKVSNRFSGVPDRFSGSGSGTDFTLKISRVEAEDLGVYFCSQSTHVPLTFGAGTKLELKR | binding result | binds |
